Items are presented alongside their recorded MIC.
- Tested on: Mycobacterium tuberculosis
- method.notes: Antitubercular activity against multidrug-resistant Mycobacterium tuberculosis by NCCLS agar dilution method
- Assay type: functional
Reply with the number, then its unit.

The following compounds have reported results that may help.
S=C(N/N=C\c1ccc(Cl)cc1)N(Cc1ccccc1)Cc1ccccc1 ... 1.98 µM
C/C(=N/NC(=S)N(Cc1ccccc1)Cc1ccccc1)c1ccc(N)cc1 ... 8.04 µM
S=C(N/N=C\c1ccccc1)N(Cc1ccccc1)Cc1ccccc1 ... 8.71 µM
C=CCN(CC=C)C(=S)N/N=C\c1ccc([N+](=O)[O-])o1 ... 0.67 µM
NNC(=O)c1ccncc1 ... 45.6 µM
C/C(=N/NC(=S)N(Cc1ccccc1)Cc1ccccc1)c1ccc([N+](=O)[O-])cc1 ... 1.86 µM
C=CCN(CC=C)C(=S)N/N=C\c1ccccc1C ... 5.7 µM
CC[C@@H](CO)NCCN[C@@H](CC)CO ... 37.7 µM

For this compound ( C=CCN(CC=C)C(=S)N/N=C(/C)c1ccccc1 ), measured MIC is 11.4 µM

For this compound ( S=C(NN=C(c1ccccc1)c1ccccc1)N(Cc1ccccc1)Cc1ccccc1 ), measured MIC is 1.79 µM

For this compound ( O=[N+]([O-])c1ccc(/C=N\NC(=S)N(Cc2ccccc2)Cc2ccccc2)o1 ), measured MIC is 0.12 µM
